Target entity: μ-opioid receptors (MOP receptors) (Mus musculus, UniProt P42866)
Construct: expressed in transfected cells; host or cells: HEK293
Sequence (P42866 whole entry): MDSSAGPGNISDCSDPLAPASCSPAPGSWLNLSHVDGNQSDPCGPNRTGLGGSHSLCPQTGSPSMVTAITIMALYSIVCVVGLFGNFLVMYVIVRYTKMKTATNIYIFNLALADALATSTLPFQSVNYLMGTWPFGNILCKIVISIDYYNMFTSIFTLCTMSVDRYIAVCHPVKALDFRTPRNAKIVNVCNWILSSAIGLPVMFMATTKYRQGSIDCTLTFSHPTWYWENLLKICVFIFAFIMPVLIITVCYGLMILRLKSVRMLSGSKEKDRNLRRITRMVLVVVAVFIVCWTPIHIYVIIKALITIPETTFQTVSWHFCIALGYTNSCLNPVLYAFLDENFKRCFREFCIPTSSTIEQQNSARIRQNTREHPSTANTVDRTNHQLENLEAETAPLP
Assay type: cell-based
Measurement context: Conc 10^−3 M
# % of forskolin stimulated cyclic AMP response values compiled below
Property label: % of forskolin stimulated cyclic AMP response (%)

> print(dat)
                       smiles.representation  recorded.number
 1              O=Cc1c(-c2ccccc2)no[n+]1[O-]              8.5
 2            COc1ccc(-c2no[n+]([O-])c2C)cc1             71.2
 3                     O=C1CCc2c1no[n+]2[O-]             18.9
 4               [O-][n+]1onc(-c2ccccc2)c1CO              3.8
 5        [O-][n+]1onc(-c2ccccc2)c1-c1ccccc1             69.6
 6             Cc1c(-c2ccc(F)cc2)no[n+]1[O-]             46.6
 7           CC(=O)c1c(-c2ccccc2)no[n+]1[O-]             22.4
 8  [O-][n+]1onc(-c2ccc(F)cc2)c1-c1ccc(F)cc1              7.1
 9                Cc1c(-c2ccccc2)no[n+]1[O-]             40.2
10                  CCc1c(C(=O)O)no[n+]1[O-]              6.8
11                   Cc1c(C(=O)O)no[n+]1[O-]              8.1
12    O=C(c1no[n+]([O-])c1-c1ccccc1)C(F)(F)F              0.3
13        O=C(O)c1c(-c2ccc(F)cc2)no[n+]1[O-]              7.1

###

Target entity: μ-opioid receptors (MOP receptors) (Mus musculus)
Construct: expressed in transfected cells; host or cells: HEK293
Type: cell-based
Measurement context: Conc 10^−8 M
# % of forskolin stimulated cyclic AMP response values compiled below
Property label: % of forskolin stimulated cyclic AMP response (%)

> print(dat)
                       smiles.representation  unit.abbrev  recorded.number
 1           CC(=O)c1c(-c2ccccc2)no[n+]1[O-]            %             86.4
 2             Cc1c(-c2ccc(F)cc2)no[n+]1[O-]            %             98.2
 3    O=C(c1no[n+]([O-])c1-c1ccccc1)C(F)(F)F            %             82.1
 4                  CCc1c(C(=O)O)no[n+]1[O-]            %            114.3
 5                     O=C1CCc2c1no[n+]2[O-]            %             62.2
 6                   Cc1c(C(=O)O)no[n+]1[O-]            %            111.2
 7                Cc1c(-c2ccccc2)no[n+]1[O-]            %             80.3
 8        O=C(O)c1c(-c2ccc(F)cc2)no[n+]1[O-]            %             81.7
 9  [O-][n+]1onc(-c2ccc(F)cc2)c1-c1ccc(F)cc1            %             57.5
10        [O-][n+]1onc(-c2ccccc2)c1-c1ccccc1            %             73.6

All figures here come from patent US8822509B2.
